Recorded values, source ChEMBL document CHEMBL1122720.

# Test Name: Toxicity in mice following p.o. administration.
# Type: organism-based
# Experimental Context: mouse, in vivo, po
Reported LD50 values are given for each entry in this list.
Parameter Measured: LD50

1. CCN1CCCC1CNC(=O)c1cc(NS(=O)(=O)NC)ccc1OC (stereo not given); > 1000 mg/kg
2. CCN1CCCC1CNC(=O)c1cc(N(C)S(=O)(=O)N(C)C)ccc1OC (stereo not given); 750 mg/kg
3. CCN1CCCC1CNC(=O)c1cc(N(C)S(=O)(=O)N(C)C)c(Cl)cc1OC (stereo not given); 750 mg/kg
4. CCN1CCCC1CNC(=O)c1cc(N(C)S(N)(=O)=O)c(Cl)cc1OC (stereo not given); > 1000 mg/kg
5. CCN1CCCC1CNC(=O)c1cc(S(N)(=O)=O)ccc1OC (stereo not given) [SULPIRIDE]; > 3000 mg/kg
6. CCN1CCCC1CNC(=O)c1cc(NS(C)(=O)=O)c(C)cc1OC (stereo not given); 750 mg/kg
7. CCN1CCCC1CNC(=O)c1cc(N(C)S(N)(=O)=O)c(C)cc1OC (stereo not given); > 1000 mg/kg
8. CCN1CCCC1CNC(=O)c1cc(NS(=O)(=O)NC)c(C)cc1OC (stereo not given); > 1000 mg/kg
9. CCN1CCCC1CNC(=O)c1cc(NS(=O)(=O)N(C)C)c(Cl)cc1OC (stereo not given); > 1000 mg/kg
10. CCN1CCCC1CNC(=O)c1cc(NS(N)(=O)=O)c(C)cc1OC (stereo not given); > 1000 mg/kg

* * *

# Test Name: Toxicity in mice following p.o. administration.
# Format: organism-based
# Experimental Context: mouse, in vivo, po
Below, each entry is listed with its recorded LD50.
Parameter Measured: LD50

1. CCN1CCCC1CNC(=O)c1cc(N(C)S(C)(=O)=O)c(C)cc1OC (configuration not stated); > 1000 mg/kg
2. CCN1CCCC1CNC(=O)c1cc(N(C)S(N)(=O)=O)ccc1OC (configuration not stated); > 1000 mg/kg
3. CCN1CCCC1CNC(=O)c1cc(NS(C)(=O)=O)c(Cl)cc1OC (configuration not stated); > 1000 mg/kg
4. CCN1CCCC1CNC(=O)c1cc(N(C)S(C)(=O)=O)ccc1OC (configuration not stated); > 1000 mg/kg
5. CCN1CCCC1CNC(=O)c1cc(N(C)S(=O)(=O)N(C)C)c(C)cc1OC (configuration not stated); 750 mg/kg
6. CCN1CCCC1CNC(=O)c1cc(NS(=O)(=O)N(C)C)c(C)cc1OC (configuration not stated); > 1000 mg/kg
7. CCN1CCCC1CNC(=O)c1cc(NS(=O)(=O)NC)c(Cl)cc1OC (configuration not stated); > 1000 mg/kg
8. CCN1CCCC1CNC(=O)c1cc(NS(N)(=O)=O)c(Cl)cc1OC (configuration not stated); > 1000 mg/kg
9. CCN1CCCC1CNC(=O)c1cc(N(C)S(C)(=O)=O)c(Cl)cc1OC (configuration not stated); > 500 mg/kg
10. CCN1CCCC1CNC(=O)c1cc(NS(=O)(=O)N(C)C)ccc1OC (configuration not stated); 750 mg/kg
11. CCN1CCCC1CNC(=O)c1cc(NS(C)(=O)=O)ccc1OC (configuration not stated); > 500 mg/kg
12. CCN1CCCC1CNC(=O)c1cc(NS(N)(=O)=O)ccc1OC (configuration not stated); > 1000 mg/kg
